Just for reference, patent US20130156779A1 is where these values come from.

- tgt: T1, Full-length human HER3 extracellular domain (ECD) (human, UniProt P21860 20-643)
- T1 construct: also called human HER3 ECD; HER-3 ECD full length
- testSummary: BIACORE 3000 SPR, mAb captured by anti-human Fc, ECD as analyte, 25 C
valueType: Kd (nM)
One number for each entry, in nM.

Reference set, count: 2
Humanized 15D5 antibody (H4L1) (antibody, human IgG1, V domains shown, Human IgG1; also called h15D5) VH: QVQLVQSGAEVKKPGASVKVSCKASGYTFTDYNMNWVRQAPGQGLEWMGGINPNYGTTVYNQKFKGKVTLTVDTSISTAYMELSRLRSDDTAVYYCARMTTIVPFDYWGQGTTVTVSS VL: DIQMTQSPSSLSASVGDRVTITCRASQDISNYLNWYQQKPGKAPKLLIYYTSTLHSGVPSRFSGSGSGTDYTFTISSLQPEDIATYYCQQGYTLPWTFGGGTKVEIKR    2.62
1D9 H0L7 RR antibody (antibody, V domains shown, Humanized RR variant; captured by anti-human Fc) VH: QVQLVQSGAEVKKPGASVKVSCKASGYTFTSYWMHWVRQAPGQGLEWMGVIDPSDGYSHYNQKFKGRVTMTRDTSISTAYMELSRLRSDDTAVYYCARGLAGTLDYWGQGTTVTVSS VL: DVVMTQSPLSLPVTLGQPASISCRSSQSIVHSSGNTYLQWFQQRPGQSPRRLISKVSNRFSGVPDRFSGSGSGTDFTLKISRVEAEDVGVYYCFQGSHVPWTFGQGTKLEIKR    59.5

Return the recorded Kd value; entry: 1D9 H3L6 RR antibody (antibody, V domains shown) VH: QVQLVQSGAEVKKPGASVKVSCKASGYTFTSYWMHWVRQAPGQGLEWMGVIDPSDGYSHYNQKFKGKVTMTRDTSISTAYMELSRLRSDDTAVYYCARGLAGTLDYWGQGTTVTVSS VL: DVVMTQSPLSLPVTLGQPASISCRSSQSIVHSSGNTYLQWFQQRPGQSPRRLIYKVSNRFSGVPDRFSGSGSGTDFTLKISRVEAEDVGVYYCFQGSHVPWTFGQGTKLEIKR
95.8
